Data origin, for the record: ChEMBL document CHEMBL3988442

Tested on: Leishmania donovani
test-summary: Leishmania intramacrophage assay
Type: functional, organism-based
Parameters: scale not given: in the data most compounds retested in dose-response had high values
test-settings: 30 µM
The whole screen tested about 69,000 compounds, of which about 1,000 (1.4%) showed an effect of 50% or more. The full list was thinned out, with strong results kept by preference.
Provide the recorded Percent Effect for the entries that follow.
Number only, in %; omit the unit.

Percent Effect measured on CC(C(=O)Nc1ccc(N2CCCC2)nc1)n1cccn1 (configuration not stated) = 19.04

# Percent Effect (compound: O=C(NCCn1ccnc1)N1CCCN(Cc2cccs2)CC1 ) is 32.04

Cc1nc(C2CCCN2C(=O)Cn2cncn2)no1 (configuration not stated) yielded Percent Effect of 21.12

For record Cc1cnn(CC2CCCN2c2ncnc3ccsc23)c1 (configuration not stated) the listed Percent Effect is 46.26

For reference, reported Percent Effect for Cc1nc(CN2CCN(C(=O)CCc3ccco3)CC2)cs1 stands at 15.52

Note to self: Percent Effect recorded for CC(C)c1nc(C2CCCN(C(=O)c3ccc4c(c3)COC4)C2)no1 (configuration not stated) was 33.04

Memo: CC(C)COC(C)C(=O)NCc1ccccc1 (configuration not stated) , reported Percent Effect: 13.02

The value of Percent Effect measured for the compound CC(C)(C)c1ncc(C(=O)NCCNS(C)(=O)=O)s1 turned out to be 20.12

The recorded Percent Effect for Cc1nccn1C1CCCN(C(=O)c2cccc(OCC(N)=O)c2)C1 (configuration not stated) is 14.8

The compound listed as O=C(NCCNc1ccc(C(F)(F)F)cn1)c1ccc(F)cc1Cl shows Percent Effect equal to 35.81

Short answer for COc1ccc(CC(=O)N2CCCC(n3nc(C)cc3C)C2)cc1F (configuration not stated) : Percent Effect was 18.37

Looking up CC(=O)N1CCCN(C(=O)NCCNc2cnccn2)CC1 , I see its Percent Effect listed as 10.17
